- experimental_target: GalNAc(b1-4)GlcNAc
- experiment: glycan array binding signal (z-score within array); higher = stronger binding
- measurement_conditions: glycan notation: IUPAC condensed, linker removed
Shown is part of a subset that was picked to be rich in the strongest signals.
endpoint_label: glycan array binding signal (z-score)
Kindly provide the number alone.

SP15308A-bot-339-19-339 (Bacteroides ovatus) (protein) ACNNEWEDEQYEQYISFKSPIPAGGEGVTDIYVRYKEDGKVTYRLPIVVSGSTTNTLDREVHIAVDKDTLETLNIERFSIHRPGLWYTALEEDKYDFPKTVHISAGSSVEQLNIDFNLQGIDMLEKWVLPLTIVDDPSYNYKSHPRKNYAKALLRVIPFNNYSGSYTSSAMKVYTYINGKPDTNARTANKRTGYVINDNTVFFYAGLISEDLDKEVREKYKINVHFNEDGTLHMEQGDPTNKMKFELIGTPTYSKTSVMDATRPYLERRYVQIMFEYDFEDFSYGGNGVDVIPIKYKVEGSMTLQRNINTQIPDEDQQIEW = 1.18

Please turn your attention to the following entry.
Task: Give glycan array binding signal (z-score) for Gal 4 (Homo sapiens), Q8K419 (protein) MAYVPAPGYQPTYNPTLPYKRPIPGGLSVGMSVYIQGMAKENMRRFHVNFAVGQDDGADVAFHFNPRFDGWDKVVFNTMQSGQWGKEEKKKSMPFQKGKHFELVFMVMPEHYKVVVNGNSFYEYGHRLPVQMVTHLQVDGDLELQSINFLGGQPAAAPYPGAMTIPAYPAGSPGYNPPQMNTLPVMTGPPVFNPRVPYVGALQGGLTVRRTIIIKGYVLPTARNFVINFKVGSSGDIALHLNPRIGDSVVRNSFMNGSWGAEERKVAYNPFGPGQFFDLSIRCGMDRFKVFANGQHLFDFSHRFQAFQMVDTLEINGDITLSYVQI
Result: -0.18
